systemTested: Recombinant human H-PGDS (Homo sapiens)
assayProcedure: H-PGDS inhibitory activity (prostaglandin D2 production from prostaglandin H2, measured by LC-MS/MS)
conditionDetails: recombinant human H-PGDS 1.0 nM expressed in E. coli; prostaglandin H2 25 μM; preincubated 15 minutes on ice, reacted on ice for 1 minute; concentration that inhibits prostaglandin D2 production by 50%
attributeMeasured: pIC50
Numbers only, as −log10 of the molar value.

These solved cases illustrate the format of a correct answer.
| smilesRepr | recordedValue |
| --- | --- |
| O=C(NCc1ccccc1Cl)c1ccc(-c2nccc3[nH]ccc23)cc1 | 8.77 |
| O=C(NCc1ccncc1)c1ccc(-c2nccc3[nH]ccc23)cc1 | 8.77 |
| [2H]C([2H])(O)c1cc2occc2c(-c2ccc(C(=O)N[C@H]3CC[C@H](C(C)(C)O)CC3)cc2)n1 | 9.05 |

Next item in the queue.
Could you share which pIC50 value was measured for NC(=O)c1cnc(N2CCC(NC(=O)c3ccc(-c4nccc5occc45)cc3)CC2)nc1 ?
8.96

----------
systemTested: Recombinant human H-PGDS (Homo sapiens, UniProt O60760)
Sequence (O60760 whole entry): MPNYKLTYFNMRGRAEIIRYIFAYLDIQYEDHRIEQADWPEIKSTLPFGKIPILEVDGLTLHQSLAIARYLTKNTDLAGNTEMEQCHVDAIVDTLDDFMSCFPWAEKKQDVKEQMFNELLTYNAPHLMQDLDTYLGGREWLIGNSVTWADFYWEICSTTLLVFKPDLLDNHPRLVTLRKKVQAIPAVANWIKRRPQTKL
assayProcedure: H-PGDS inhibitory activity (prostaglandin D2 production from prostaglandin H2, measured by LC-MS/MS)
conditionDetails: recombinant human H-PGDS 1.0 nM expressed in E. coli; prostaglandin H2 25 μM; preincubated 15 minutes on ice, reacted on ice for 1 minute; concentration that inhibits prostaglandin D2 production by 50%
Experimental: The H-PGDS inhibitory activity of each Example compound was measured according to the method reported by LIN, Jiang. et al. (NO 2007/041634). Recombinant human H-PGDS (final concentration: 1.0 nM) expressed in E. coli was mixed in an assay buffer containing 20 mM Tris-HCl (pH 8.0), 2 mM magnesium chloride, 2 mM reduced glutathione, and 0.5 mg/mL γ-globulin, and 150 μL of the mixture was dispensed into a 8-strip PCR tube (BM Equipment Co., Ltd.). […]
attributeMeasured: pIC50
One number for each entry, as −log10 of the molar value.

| compound | pIC50 |
| --- | --- |
| O=C(NC1CCC(N2CCC(F)(F)CC2)CC1)c1ccc(-c2nccc3occc23)cc1 (stereo not shown) | 8.66 |
| CS(=O)(=O)c1cccc(NC(=O)c2ccc(-c3nccc4occc34)cc2)c1 | 8.43 |
| CCCCCCNC(=O)c1ccc(-c2nccc3occc23)cc1 | 7.89 |

Quick batch: pIC50 for everything below.
1. O=C(NCCCN1CCS(=O)(=O)CC1)c1ccc(-c2nccc3[nH]ccc23)cc1
2. O=C(N[C@@H]1CN(c2ncc(CO)cn2)C[C@@H]1O)c1ccc(-c2nccc3occc23)cc1
3. O=C(NC1CCN(c2ccc(Cl)nn2)CC1)c1ccc(-c2nccc3occc23)cc1

[9.20, 7.85, 8.74]

----------
Can you tell me IC50 for the items I'm about to list?
systemTested: Recombinant human H-PGDS (Homo sapiens, UniProt O60760)
assayProcedure: H-PGDS inhibitory activity (prostaglandin D2 production from prostaglandin H2, measured by LC-MS/MS)
conditionDetails: recombinant human H-PGDS 1.0 nM expressed in E. coli; prostaglandin H2 25 μM; preincubated 15 minutes on ice, reacted on ice for 1 minute; concentration that inhibits prostaglandin D2 production by 50%
Write the figure, then the unit, nothing else.

These solved cases illustrate the format of a correct answer.
| compound | recordedValue |
| --- | --- |
| O=C(NC1CCN(c2cccc(=O)[nH]2)CC1)c1ccc(-c2nccc3occc23)cc1 [Example 172] | 2.6 nM |
| CC[C@]1(O)CC[C@H](NC(=O)c2ccc(-c3nccc4occc34)cc2)CC1 [Example 289] | 1.6 nM |
| O=C(NC1CCN(c2ccccn2)CC1)c1ccc(-c2nccc3occc23)cc1 [Example 118] | 0.45 nM |
| O=C(NC1CCN(c2nccs2)CC1)c1ccc(-c2nccc3occc23)cc1 [Example 101] | 1 nM |

Quick batch: IC50 for everything below.
1. O=C(N[C@H]1CC[C@H](NCC(F)F)CC1)c1ccc(-c2nccc3occc23)cc1 [Example 294]
2. O=C(NC1CCN(c2cccc(F)n2)CC1)c1ccc(-c2nccc3occc23)cc1 [Example 147]
3. N#Cc1cnc(N2CCC(NC(=O)c3ccc(-c4nccc5occc45)cc3)CC2)nc1 [Example 173]
4. Cn1cncc1CNC(=O)c1ccc(-c2nccc3[nH]ccc23)cc1 [Example 41]

1: 1.1 nM; 2: 1 nM; 3: 0.83 nM; 4: 0.63 nM
